So I've got a bunch of molecules here, and I need their Log S values.
Settings: buffer
No unit in the answer, please; the number alone is enough.

stdin: Which value of Log S has been reported for Nc1ccccc1 in the records?
stdout: -0.41

stdin: Which value of Log S has been reported for COc1ccccc1 in the records?
stdout: -1.85

stdin: Which value of Log S has been reported for CCCO in the records?
stdout: 0.62

stdin: Which value of Log S has been reported for CC(=O)CC(c1ccccc1)c1c(O)c2ccccc2oc1=O (stereo unspecified) in the records?
stdout: -4.26

stdin: Which value of Log S has been reported for c1ccc2[nH]ccc2c1 in the records?
stdout: -1.21

stdin: Which value of Log S has been reported for C=C(C)C1CC=C(C)C(=O)C1 (stereo unspecified) in the records?
stdout: -2.06

stdin: Which value of Log S has been reported for Clc1c(Cl)c(Cl)c(-c2ccccc2)c(Cl)c1Cl in the records?
stdout: -7.78

stdin: Which value of Log S has been reported for O=C(O)Cc1ccccc1Oc1ccc(Cl)cc1Cl in the records?
stdout: -3.85

stdin: Which value of Log S has been reported for CC/C(=C(/CC)c1ccc(O)cc1)c1ccc(O)cc1 in the records?
stdout: -4.07

stdin: Which value of Log S has been reported for c1ccc(-c2ccccc2)cc1 in the records?
stdout: -4.35

stdin: Which value of Log S has been reported for CCO in the records?
stdout: 1.1

###

Conditions: buffer
observation-type: Log S
No unit in the answer, please; the number alone is enough.

stdin: Which value of Log S has been reported for O=C(O)c1ccccc1 in the records?
stdout: -1.55

stdin: Which value of Log S has been reported for C1COCCN1 in the records?
stdout: 1.97

stdin: Which value of Log S has been reported for Cc1ccc(O)cc1 in the records?
stdout: -0.73

stdin: Which value of Log S has been reported for CCOC(=O)NCCOc1ccc(Oc2ccccc2)cc1 in the records?
stdout: -4.7

stdin: Which value of Log S has been reported for c1ccc2c(c1)oc1ccccc12 in the records?
stdout: -4.6

stdin: Which value of Log S has been reported for COC(C)=O in the records?
stdout: 0.46

stdin: Which value of Log S has been reported for O=[N+]([O-])c1ccccc1 in the records?
stdout: -1.8

###

So I've got a bunch of molecules here, and I need their Log S values.
Details: buffer
No unit in the answer, please; the number alone is enough.

stdin: Which value of Log S has been reported for Cc1ccccc1 [TOLUENE] in the records?
stdout: -2.21

stdin: Which value of Log S has been reported for COC1=CC(=O)C[C@@H](C)[C@]12Oc1c(Cl)c(OC)cc(OC)c1C2=O [GRISEOFULVIN] in the records?
stdout: -4.07

stdin: Which value of Log S has been reported for O=C(O)c1ccccc1O [SALICYLIC ACID] in the records?
stdout: -1.82

stdin: Which value of Log S has been reported for O=C1Nc2ccc(Cl)cc2C(c2ccccc2Cl)=NC1O (stereo unspecified) [LORAZEPAM] in the records?
stdout: -3.6

stdin: Which value of Log S has been reported for CCCCCC [HEXANE] in the records?
stdout: -3.84

stdin: Which value of Log S has been reported for NC(=O)c1ccccc1 [BENZAMIDE] in the records?
stdout: -0.96

stdin: Which value of Log S has been reported for CN(C)CCCN1c2ccccc2Sc2ccc(Cl)cc21 [CHLORPROMAZINE] in the records?
stdout: -5.1

stdin: Which value of Log S has been reported for c1ccc2ncccc2c1 [QUINOLINE] in the records?
stdout: -1.3

stdin: Which value of Log S has been reported for COC(=O)[C@@H]1C2CC[C@@H](C[C@@H]1OC(=O)c1ccccc1)N2C (single isomer, unassigned) [COCAINE] in the records?
stdout: -2.25

stdin: Which value of Log S has been reported for Oc1cccc(Cl)c1Cl in the records?
stdout: -1.3

stdin: Which value of Log S has been reported for O=C1CN(/N=C/c2ccc([N+](=O)[O-])o2)C(=O)N1 [NITROFURANTOIN] in the records?
stdout: -3.38
